- studyTarget: Sko1 (Saccharomyces cerevisiae) (UniProt Q02100)
- Sequence: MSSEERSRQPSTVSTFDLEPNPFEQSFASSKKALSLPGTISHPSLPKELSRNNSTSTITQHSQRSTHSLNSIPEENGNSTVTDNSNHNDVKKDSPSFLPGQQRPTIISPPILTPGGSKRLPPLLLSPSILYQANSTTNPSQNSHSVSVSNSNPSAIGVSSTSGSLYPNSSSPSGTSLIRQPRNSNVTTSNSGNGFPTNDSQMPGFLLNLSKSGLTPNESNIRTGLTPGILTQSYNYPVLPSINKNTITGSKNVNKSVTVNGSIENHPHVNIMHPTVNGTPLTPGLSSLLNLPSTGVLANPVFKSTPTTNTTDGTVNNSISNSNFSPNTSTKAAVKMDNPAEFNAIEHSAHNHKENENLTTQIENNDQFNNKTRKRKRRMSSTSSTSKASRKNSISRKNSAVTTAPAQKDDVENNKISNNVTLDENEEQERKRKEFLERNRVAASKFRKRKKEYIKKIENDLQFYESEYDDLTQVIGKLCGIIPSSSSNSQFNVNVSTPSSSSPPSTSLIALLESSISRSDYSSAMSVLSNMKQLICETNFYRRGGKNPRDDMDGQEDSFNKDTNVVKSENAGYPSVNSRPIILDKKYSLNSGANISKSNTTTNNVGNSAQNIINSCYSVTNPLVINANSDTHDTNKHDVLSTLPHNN
- conditions: 200 nM
Property: binding signal (PBM E-score (-0.5 to 0.5)); scope: individual sequences
measure: binding signal (PBM E-score (-0.5 to 0.5))

{"sequenceContent": "GTGACGTA (double strand) [8-mer GTGACGTA]", "studyTarget": "Sko1 (Saccharomyces cerevisiae) (UniProt Q02100)", "quantitativeResult": 0.494}
{"sequenceContent": "ACGTCATA (double strand) [8-mer ACGTCATA]", "studyTarget": "Sko1 (Saccharomyces cerevisiae) (UniProt Q02100)", "quantitativeResult": 0.498}
{"sequenceContent": "TTACGTAA (double strand) [8-mer TTACGTAA]", "studyTarget": "Sko1 (Saccharomyces cerevisiae) (UniProt Q02100)", "quantitativeResult": 0.496}
{"sequenceContent": "TGACGTCA (double strand) [8-mer TGACGTCA]", "studyTarget": "Sko1 (Saccharomyces cerevisiae) (UniProt Q02100)", "quantitativeResult": 0.499}
{"sequenceContent": "AATGACGT (double strand) [8-mer AATGACGT]", "studyTarget": "Sko1 (Saccharomyces cerevisiae) (UniProt Q02100)", "quantitativeResult": 0.498}
{"sequenceContent": "ACGTCATG (double strand) [8-mer ACGTCATG]", "studyTarget": "Sko1 (Saccharomyces cerevisiae) (UniProt Q02100)", "quantitativeResult": 0.497}
{"sequenceContent": "ATGACGTG (double strand) [8-mer ATGACGTG]", "studyTarget": "Sko1 (Saccharomyces cerevisiae) (UniProt Q02100)", "quantitativeResult": 0.496}
{"sequenceContent": "ACGTAATA (double strand) [8-mer ACGTAATA]", "studyTarget": "Sko1 (Saccharomyces cerevisiae) (UniProt Q02100)", "quantitativeResult": 0.493}
{"sequenceContent": "TGACGTAA (double strand) [8-mer TGACGTAA]", "studyTarget": "Sko1 (Saccharomyces cerevisiae) (UniProt Q02100)", "quantitativeResult": 0.498}
{"sequenceContent": "ATACGTCA (double strand) [8-mer ATACGTCA]", "studyTarget": "Sko1 (Saccharomyces cerevisiae) (UniProt Q02100)", "quantitativeResult": 0.494}
{"sequenceContent": "ATTACGTA (double strand) [8-mer ATTACGTA]", "studyTarget": "Sko1 (Saccharomyces cerevisiae) (UniProt Q02100)", "quantitativeResult": 0.497}

----------
Property: binding signal (PBM E-score (-0.5 to 0.5)); scope: individual sequences
- studyTarget: Ybr033w (Saccharomyces cerevisiae) (UniProt P38073)
- Sequence: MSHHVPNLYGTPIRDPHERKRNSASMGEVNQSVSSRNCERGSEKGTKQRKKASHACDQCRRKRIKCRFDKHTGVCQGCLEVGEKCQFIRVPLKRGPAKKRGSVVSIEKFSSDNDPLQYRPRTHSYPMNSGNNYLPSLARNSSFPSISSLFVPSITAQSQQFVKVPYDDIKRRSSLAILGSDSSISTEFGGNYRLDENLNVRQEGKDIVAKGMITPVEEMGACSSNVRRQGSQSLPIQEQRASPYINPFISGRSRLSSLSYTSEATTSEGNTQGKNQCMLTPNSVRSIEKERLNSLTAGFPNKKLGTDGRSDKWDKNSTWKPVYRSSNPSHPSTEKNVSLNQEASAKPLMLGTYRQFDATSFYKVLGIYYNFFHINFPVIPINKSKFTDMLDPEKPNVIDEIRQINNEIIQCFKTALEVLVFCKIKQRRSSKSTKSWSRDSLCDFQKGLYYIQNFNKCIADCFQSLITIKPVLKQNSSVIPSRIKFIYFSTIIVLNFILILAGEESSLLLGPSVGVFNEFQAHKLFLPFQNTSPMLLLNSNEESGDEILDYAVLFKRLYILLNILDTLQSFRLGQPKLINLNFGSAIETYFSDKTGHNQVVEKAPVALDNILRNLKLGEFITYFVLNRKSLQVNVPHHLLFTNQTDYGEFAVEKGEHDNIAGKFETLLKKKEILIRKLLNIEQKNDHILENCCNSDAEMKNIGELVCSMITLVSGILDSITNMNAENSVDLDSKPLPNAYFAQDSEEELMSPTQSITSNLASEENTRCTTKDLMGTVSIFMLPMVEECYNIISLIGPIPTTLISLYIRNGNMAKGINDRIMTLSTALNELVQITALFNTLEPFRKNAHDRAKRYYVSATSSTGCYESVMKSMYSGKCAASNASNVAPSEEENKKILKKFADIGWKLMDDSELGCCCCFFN
- conditions: 200 nM
measure: binding signal (PBM E-score (-0.5 to 0.5))

{"sequenceContent": "AATTATCC (double strand) [8-mer AATTATCC]", "studyTarget": "Ybr033w (Saccharomyces cerevisiae) (UniProt P38073)", "quantitativeResult": 0.471}
{"sequenceContent": "GGAAAAAA (double strand) [8-mer GGAAAAAA]", "studyTarget": "Ybr033w (Saccharomyces cerevisiae) (UniProt P38073)", "quantitativeResult": 0.472}
{"sequenceContent": "CGGATAAA (double strand) [8-mer CGGATAAA]", "studyTarget": "Ybr033w (Saccharomyces cerevisiae) (UniProt P38073)", "quantitativeResult": 0.488}
{"sequenceContent": "ATTTATCC (double strand) [8-mer ATTTATCC]", "studyTarget": "Ybr033w (Saccharomyces cerevisiae) (UniProt P38073)", "quantitativeResult": 0.485}
{"sequenceContent": "ATTATTCC (double strand) [8-mer ATTATTCC]", "studyTarget": "Ybr033w (Saccharomyces cerevisiae) (UniProt P38073)", "quantitativeResult": 0.479}
{"sequenceContent": "ATTAATCC (double strand) [8-mer ATTAATCC]", "studyTarget": "Ybr033w (Saccharomyces cerevisiae) (UniProt P38073)", "quantitativeResult": 0.486}
{"sequenceContent": "ATTTTCCG (double strand) [8-mer ATTTTCCG]", "studyTarget": "Ybr033w (Saccharomyces cerevisiae) (UniProt P38073)", "quantitativeResult": 0.472}
{"sequenceContent": "ATTTTTCC (double strand) [8-mer ATTTTTCC]", "studyTarget": "Ybr033w (Saccharomyces cerevisiae) (UniProt P38073)", "quantitativeResult": 0.486}
{"sequenceContent": "GGAAAAAC (double strand) [8-mer GGAAAAAC]", "studyTarget": "Ybr033w (Saccharomyces cerevisiae) (UniProt P38073)", "quantitativeResult": 0.476}
{"sequenceContent": "ATTGTTCC (double strand) [8-mer ATTGTTCC]", "studyTarget": "Ybr033w (Saccharomyces cerevisiae) (UniProt P38073)", "quantitativeResult": 0.484}
{"sequenceContent": "CGGAACAA (double strand) [8-mer CGGAACAA]", "studyTarget": "Ybr033w (Saccharomyces cerevisiae) (UniProt P38073)", "quantitativeResult": 0.491}
{"sequenceContent": "CGGATTAA (double strand) [8-mer CGGATTAA]", "studyTarget": "Ybr033w (Saccharomyces cerevisiae) (UniProt P38073)", "quantitativeResult": 0.482}
{"sequenceContent": "CGGAAAAA (double strand) [8-mer CGGAAAAA]", "studyTarget": "Ybr033w (Saccharomyces cerevisiae) (UniProt P38073)", "quantitativeResult": 0.495}
{"sequenceContent": "AATGTTCC (double strand) [8-mer AATGTTCC]", "studyTarget": "Ybr033w (Saccharomyces cerevisiae) (UniProt P38073)", "quantitativeResult": 0.471}
{"sequenceContent": "CGGATCAA (double strand) [8-mer CGGATCAA]", "studyTarget": "Ybr033w (Saccharomyces cerevisiae) (UniProt P38073)", "quantitativeResult": 0.472}
